Organism: Homo sapiens
Experiment: Selectivity ratio of Ki for human CB1 receptor to Ki for human CB2 receptor
One threshold, 3, splits the recorded Ratio Ki values: lower ones are fulfilled, equal or higher ones are not fulfilled.

Worked examples, 6 compounds total:
- input_smiles: "CC1=CC[C@@H]2[C@@H](C1)c1c(O)cc(C(C)(C)c3ccc(C#N)cc3)cc1OC2(C)C"
  label_value: "not fulfilled"
- input_smiles: "CC1=CC[C@@H]2[C@@H](C1)c1c(O)cc(C(C)(C)c3ccc(Br)cc3)cc1OC2(C)C"
  label_value: "not fulfilled"
- input_smiles: "CC1=CC[C@@H]2[C@@H](C1)c1c(O)cc(C(C)(C)c3ccccc3C)cc1OC2(C)C"
  label_value: "not fulfilled"
- input_smiles: "CC1=CC[C@@H]2[C@@H](C1)c1c(O)cc(C(C)(C)c3ccc(Cl)cc3)cc1OC2(C)C"
  label_value: "not fulfilled"
- input_smiles: "CCCc1ccc(C(C)(C)c2cc(O)c3c(c2)OC(C)(C)[C@@H]2CC=C(C)C[C@@H]32)cc1"
  label_value: "fulfilled"
- input_smiles: "CC1=CC[C@@H]2[C@@H](C1)c1c(O)cc(C(C)(C)c3cccs3)cc1OC2(C)C"
  label_value: "not fulfilled"

Could you now consider this next compound?
Quick check: Ratio Ki of `CCc1ccc(C(C)(C)c2cc(O)c3c(c2)OC(C)(C)[C@@H]2CC=C(C)C[C@@H]32)cc1` under 3? fulfilled
